System: anesthetized juvenile pigs
Assay Details: animal or person
Assay type: in vivo
Condition Notes: pig; time to 80-85% neuromuscular block
Description: Both electromyographic and mechanomyographic responses can be quantified. The techniques described under a) and b) were employed in other species as needed with the modification that juvenile pigs were initially anesthetized with inhalation of halothane (Table 5) and monkeys were initially sedated with intramuscular ketamine injections prior to inducing and maintaining general anesthesia using pentobarbital and propofol administered intravenously (Table 6).
Classify as follows. Reported Onset greater than or equal to 0.7 min: 1. Reported Onset below: -1.

COc1cc(C[N+]2(C)[C@@H]3CC[C@H]2C[C@@H](OC(=O)C2CCC2C(=O)O[C@H]2C[C@H]4CC[C@@H](C2)[N+]4(C)Cc2ccc(OC(C)=O)c(OC)c2)C3)ccc1OC(C)=O.[Br-].[Br-] (stereo partly shown)	-1
CC(=O)Oc1ccc(C[N+]2(C)[C@@H]3CC[C@H]2C[C@@H](OC(=O)C2CCCC(C(=O)O[C@H]4C[C@H]5CC[C@@H](C4)[N+]5(C)Cc4ccc(OC(C)=O)c(OC(C)=O)c4)C2)C3)cc1OC(C)=O.[Br-].[Br-] (stereo partly shown)	1
CC(=O)Oc1ccc(C[N+]2(C)C3CCC2CC(OC(=O)C2C4C=CC(C4)C2C(=O)OC2CC4CCC(C2)[N+]4(C)Cc2ccc(OC(C)=O)c(OC(C)=O)c2)C3)cc1OC(C)=O.[Br-].[Br-] (stereo not drawn) [bis[N-(3,4-diacetoxybenzyl)tropanium-3α-yl]trans-3,6-endomet]	-1
COc1cc(C[N+]2(C)C3CCC2CC(OC(=O)C2C4C=CC(C4)C2C(=O)OC2CC4CCC(C2)[N+]4(C)Cc2cc(OC)c(OC(C)=O)c(OC)c2)C3)cc(OC)c1OC(C)=O.[Br-].[Br-] (stereo not shown)	-1
CCC(=O)Oc1ccc(C[N+]2(C)[C@@H]3CC[C@H]2C[C@@H](OC(=O)CCCCC(=O)O[C@H]2C[C@H]4CC[C@@H](C2)[N+]4(C)Cc2ccc(OC(=O)CC)c(OC(=O)CC)c2)C3)cc1OC(=O)CC.[Br-].[Br-] (stereo partly shown)	-1
COc1cc(C[N+]2(C)[C@@H]3CC[C@H]2C[C@@H](OC(=O)CCCCCCCCCC(=O)O[C@H]2C[C@H]4CC[C@@H](C2)[N+]4(C)Cc2cc(OC)c(OC(C)=O)c(OC)c2)C3)cc(OC)c1OC(C)=O.[Br-].[Br-] (stereo partly shown)	-1
COc1cc(C[N+]2(C)[C@@H]3CC[C@H]2C[C@@H](OC(=O)C2CCCC(C(=O)O[C@H]4C[C@H]5CC[C@@H](C4)[N+]5(C)Cc4ccc(OC(C)=O)c(OC)c4)C2)C3)ccc1OC(C)=O.[Br-].[Br-] (stereo partly shown)	-1
COc1cc2c(cc1OC)[C@@H](Cc1cc(OC)c(OC)c(OC)c1)[N+](C)(CCCOC(=O)CC/C=C/CCC(=O)OCCC[N+]1(C)CCc3cc(OC)c(OC)cc3[C@H]1Cc1cc(OC)c(OC)c(OC)c1)CC2 (stereo partly shown) [Mivacurium, reference compound]	1
CC(=O)Oc1ccc(C[N+]2(C)C3CCCC2CC(OC(=O)CCCC(=O)OC2CC4CCCC(C2)[N+]4(C)Cc2ccc(OC(C)=O)c(OC(C)=O)c2)C3)cc1OC(C)=O.[Br-].[Br-] (stereo not shown)	1

---

Test system: anesthetized rats (evoked responses of anterior tibial muscle)
Assay Details: In vivo neuromuscular block and cardiovascular side effects, anesthetized rat (Example 8, Table 3)
Condition Notes: Rattus norvegicus, iv
Reported ED50 is given for each of the following compounds.
Endpoint: ED50 (mg/kg)

CCC(=O)Oc1ccc(C[N+]2(C)[C@@H]3CC[C@H]2C[C@@H](OC(=O)CCCCC(=O)O[C@H]2C[C@H]4CC[C@@H](C2)[N+]4(C)Cc2ccc(OC(=O)CC)c(OC(=O)CC)c2)C3)cc1OC(=O)CC.[Br-].[Br-] (some centres unmarked)	0.217
COc1cc(C[N+]2(C)[C@@H]3CC[C@H]2C[C@@H](OC(=O)CCCCCCCCCC(=O)O[C@H]2C[C@H]4CC[C@@H](C2)[N+]4(C)Cc2cc(OC)c(OC)c(OC)c2)C3)cc(OC)c1OC.[Br-].[Br-] (some centres unmarked)	0.18
COc1cc(C[N+]2(C)[C@@H]3CC[C@H]2C[C@@H](OC(=O)C2CCC2C(=O)O[C@H]2C[C@H]4CC[C@@H](C2)[N+]4(C)Cc2ccc(OC(C)=O)c(OC)c2)C3)ccc1OC(C)=O.[Br-].[Br-] (some centres unmarked)	0.35
C[N+]1(Cc2ccccc2)[C@@H]2CC[C@H]1C[C@@H](OC(=O)CCCC(=O)O[C@H]1C[C@H]3CC[C@@H](C1)[N+]3(C)Cc1ccccc1)C2.[Br-].[Br-] (some centres unmarked) [reference compound]	5.5
C[N+]1(C)[C@@H]2CC[C@H]1C[C@@H](OC(=O)CCCC(=O)O[C@H]1C[C@H]3CC[C@@H](C1)[N+]3(C)C)C2.[I-].[I-] [reference compound]	2

---

Test system: anesthetized rats (evoked responses of anterior tibial muscle)
Assay Details: In vivo neuromuscular block and cardiovascular side effects, anesthetized rat (Example 8, Table 3)
Condition Notes: rat; time to 80-85% neuromuscular block
Endpoint: Onset

CC(=O)Oc1ccc(C[N+]2(C)C3CCCC2CC(OC(=O)C2CCC2C(=O)OC2CC4CCCC(C2)[N+]4(C)Cc2ccc(OC(C)=O)c(OC(C)=O)c2)C3)cc1OC(C)=O.[Br-].[Br-] (centres unmarked)	0.5 min
CCC(=O)Oc1c(OC)cc(C[N+]2(C)[C@@H]3CC[C@H]2C[C@@H](OC(=O)C2CCCC(C(=O)O[C@H]4C[C@H]5CC[C@@H](C4)[N+]5(C)Cc4cc(OC)c(OC(=O)CC)c(OC)c4)C2)C3)cc1OC.[Br-].[Br-] (some centres unmarked)	0.55 min
CCC(=O)Oc1ccc(C[N+]2(C)[C@@H]3CC[C@H]2C[C@@H](OC(=O)C2CCC2C(=O)O[C@H]2C[C@H]4CC[C@@H](C2)[N+]4(C)Cc2ccc(OC(=O)CC)c(OC(=O)CC)c2)C3)cc1OC(=O)CC.[Br-].[Br-] (some centres unmarked)	0.6 min
COc1cc(C[N+]23CCC(CC2)C(OC(=O)[C@@H]2[C@@H](C(=O)OC4C[N+]5(Cc6ccc(OC(C)=O)c(OC)c6)CCC4CC5)[C@H]4C=C[C@@H]2C4)C3)ccc1OC(C)=O.[Br-].[Br-] (relative stereo)	1.8 min
COc1cc(C[N+]2(C)C3CCC2CC(OC(=O)C2C4C=CC(C4)C2C(=O)OC2CC4CCC(C2)[N+]4(C)Cc2cc(OC)c(OC(C)=O)c(OC)c2)C3)cc(OC)c1OC(C)=O.[Br-].[Br-] (centres unmarked)	0.7 min

---

Test system: anesthetized cats (evoked responses of anterior tibial muscle)
Assay Details: animal or person
Condition Notes: cat; intravenous dose causing 50% neuromuscular block
Reported ED50 is given for each of the following compounds.
Endpoint: ED50 (mg/kg)

COc1cc(C[N+]2(C)C3CCC2CC(OC(=O)C2C4C=CC(C4)C2C(=O)OC2CC4CCC(C2)[N+]4(C)Cc2ccc(OC(C)=O)c(OC)c2)C3)ccc1OC(C)=O.[Br-].[Br-] (stereo not shown)	0.193
CC(=O)Oc1ccc(C[N+]2(C)C3CCCC2CC(OC(=O)CCCC(=O)OC2CC4CCCC(C2)[N+]4(C)Cc2ccc(OC(C)=O)c(OC(C)=O)c2)C3)cc1OC(C)=O.[Br-].[Br-] (stereo not shown)	0.7
CC(=O)Oc1ccc(C[N+]2(C)C3CCCC2CC(OC(=O)CCCCC(=O)OC2CC4CCCC(C2)[N+]4(C)Cc2ccc(OC(C)=O)c(OC(C)=O)c2)C3)cc1OC(C)=O.[Br-].[Br-] (stereo not shown)	0.4
COc1cc2c(cc1OC)[C@@H](Cc1cc(OC)c(OC)c(OC)c1)[N+](C)(CCCOC(=O)CC/C=C/CCC(=O)OCCC[N+]1(C)CCc3cc(OC)c(OC)cc3[C@H]1Cc1cc(OC)c(OC)c(OC)c1)CC2 (stereo partly shown) [Mivacurium, reference compound]	0.025
CC(=O)Oc1ccc(C[N+]2(C)C3CCCC2CC(OC(=O)C2CCC2C(=O)OC2CC4CCCC(C2)[N+]4(C)Cc2ccc(OC(C)=O)c(OC(C)=O)c2)C3)cc1OC(C)=O.[Br-].[Br-] (stereo not shown)	0.4
CC(=O)Oc1ccc(C[N+]2(C)C3CCC2CC(OC(=O)C2C4C=CC(C4)C2C(=O)OC2CC4CCC(C2)[N+]4(C)Cc2ccc(OC(C)=O)c(OC(C)=O)c2)C3)cc1OC(C)=O.[Br-].[Br-] (stereo not drawn) [bis[N-(3,4-diacetoxybenzyl)tropanium-3α-yl]trans-3,6-endomet]	0.12
CC(=O)Oc1ccc(C[N+]2(C)C3CCCC2CC(OC(=O)CCCCCCC(=O)OC2CC4CCCC(C2)[N+]4(C)Cc2ccc(OC(C)=O)c(OC(C)=O)c2)C3)cc1OC(C)=O.[Br-].[Br-] (stereo not shown)	0.7
